Attribution: patent US20170190671A1

Tested on: rice (Oryza sativa)
Test: Test B flooded paddy
Assay type: in vivo
Details: Oryza sativa, 336 h; 250 g ai/ha, Flood, 13 to 15 days, scale 0 (no effect) to 100 (complete control); read-out: Plant response rating, Rice
plant injury at 250 g/ha: recorded values
Express your answer in %, writing the number without its unit.

Example molecules with recorded plant injury at 250 g/ha:
{"columns": ["molecule", "plant injury at 250 g/ha, %"],
 "data": [
  ["Clc1cnc(Oc2cccc(Cl)c2Oc2ncc(Br)cn2)nc1 [Compound 17]", 35],
  ["FCc1cccc(Oc2ncc(Cl)cn2)c1Oc1ncc(Cl)cn1 [Compound 44]", 40],
  ["N#Cc1cccc(Oc2ncc(Br)cn2)c1Oc1ncc(Cl)cn1 [Compound 5]", 0]
]}

So, Fc1cnc(Oc2c(F)cccc2Oc2ncc(Cl)cn2)nc1 [Compound 23] ? Its plant injury at 250 g/ha was 60

So, N#Cc1cccc(Oc2ncc(Cl)cn2)c1Oc1ncc(C(F)(F)F)cn1 [Compound 38] ? Its plant injury at 250 g/ha was 45
